B1: HDV Ribozyme (parent)
chain: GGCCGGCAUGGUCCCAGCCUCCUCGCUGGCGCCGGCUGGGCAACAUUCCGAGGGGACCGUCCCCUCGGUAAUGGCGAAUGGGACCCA

# Variants of: B1
# PROCEDURE DETAILS: self-cleavage, relative activity (ratio to wild type); higher = more cleavage; co-transcriptional
This listing pairs variants with measured self-cleavage.
Reply with the value as a number alone.

SEQUENCE CONTENT	self-cleavage
GGCCGGCAUGGUCCCAGCCUCCUCGCUGGCGCCGGCUGGGCAACUUUCCGAGGGGACCGUCUCCUCGGUAAUGGCGAAUGGGACCCA [A45U C62U]	0.923
GGCCGGCAUGGUCCCAGCCUCCUCGCUGGCGCCGGCUGGGCAACAAUCCGAGGGGACCGUCCCCUCGGUAAUGGCGAUUGGGACCCA [U46A A78U]	0.156
GGCCGGCAUGGUCCCAGCCUCCUCGCUGGCGCCGGCUGGGCAACAUUCCGAGGGGACCGUCCCCUCGGUAAUGGUGAAUGGGAACCA [C75U C84A]	0.237
GGCCGGCAUGGUCCCAGCCUCCUCGCUGGCGCCGGCUGGGCAACAUUCCGAGGGGACCGUCCCCUAGGUAAAGGCGAAUGGGACCCA [C66A U72A]	0.608

Alright, here's another variant for you.
Consider the variant shown here: GGCCGGCAUGGUCCCAGCCUCCUCGCUGGCGCCGGCUGGGCAACAUUCCGAGGGGACCUUCCCCUCGGUAAUGGCGAAUGCGACCCA [G59U G81C] What is its recorded self-cleavage?
0.223
